Every entry's value here was drawn from patent US20080090805A1.

Item-by-item account of Ki
Target: native CB1 receptors (Rattus norvegicus, UniProt P20272)
Sequence (P20272 whole entry): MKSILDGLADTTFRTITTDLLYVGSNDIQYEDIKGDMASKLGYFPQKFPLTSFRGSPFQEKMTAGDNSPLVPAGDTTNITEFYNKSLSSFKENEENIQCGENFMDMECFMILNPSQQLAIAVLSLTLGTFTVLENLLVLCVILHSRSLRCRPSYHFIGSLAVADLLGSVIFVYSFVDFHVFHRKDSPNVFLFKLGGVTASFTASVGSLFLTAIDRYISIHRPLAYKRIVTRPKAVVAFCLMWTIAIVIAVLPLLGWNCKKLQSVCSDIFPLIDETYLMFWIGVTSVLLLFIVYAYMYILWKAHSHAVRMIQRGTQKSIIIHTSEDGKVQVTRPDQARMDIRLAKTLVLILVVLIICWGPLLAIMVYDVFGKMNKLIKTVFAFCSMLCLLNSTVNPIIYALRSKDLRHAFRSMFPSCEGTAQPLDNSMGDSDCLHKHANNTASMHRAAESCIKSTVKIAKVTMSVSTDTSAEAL
Experiment: CB1 receptor rat binding assay ([3H]SR141716A, rat brain membranes)
Details: rat brain membranes, [3H]SR141716A; read-out: Binding rat pKi (converted)
Field: numeric (µM). Do not append units.

Answered cases to consult:
* O=C(NC1CCC(F)(F)CC1)c1ccc2c(c1)N=C(c1cccc(F)c1)c1ccccc1S2 [drawing 1249] | 0.001
* Clc1ccc(C2=Nc3cc(-c4ncc[nH]4)ccc3Sc3ccccc32)cc1 [drawing 1485] | 0.0631
* O=C(NN1CCCCCC1)c1ccc2c(c1)N=C(c1ccc(Cl)cc1F)c1ccccc1S2 [drawing 1386] | 0.00501
* CCCCNC(=O)c1ccc2c(c1)N=C(c1ccccc1F)c1ccccc1S2 [drawing 1348] | 0.0251

Reported Ki ( COc1cccc(C2=Nc3cc(C(=O)NCCC(F)(F)F)ccc3Sc3ccccc32)n1 [drawing 1237] ) = 0.0158

The reported value for O=C(NCc1cccnc1)c1ccc2c(c1)N=C(c1cccc(Br)c1)c1ccccc1S2 [drawing 1278] in terms of Ki is 0.02

Reported Ki of CC(C)CCNC(=O)c1ccc2c(c1)N=C(c1ccccn1)c1ccccc1S2 [drawing 1349] : 0.0316

// recorded Ki for O=C(NCc1ccccc1Cl)c1ccc2c(c1)N=C(c1ccccc1)c1ccccc1S2 [drawing 1324] : 0.0251

Ki recorded for this compound, O=C(NCc1ccc(Cl)cc1Cl)c1ccc2c(c1)N=C(c1ccccc1F)c1ccccc1S2 [drawing 1551] , is 0.1

The measured Ki associated with CC(C)CNC(=O)c1ccc2c(c1)N=C(c1ccc(Cl)cc1)c1ccc(F)cc1S2 [drawing 1177] reads 0.00398

The compound listed as Cc1ccsc1C1=Nc2cc(C(=O)NCCCC(F)(F)F)ccc2Sc2ccccc21 [drawing 1225] shows Ki equal to 0.000631

Documented Ki of C[C@@H]1CCC[C@H](C)N1NC(=O)c1ccc2c(c1)N=C(c1cccc(Cl)c1)c1ccccc1S2 [drawing 1526] : 0.01

Looking up CCCCNC(=O)c1ccc2c(c1)N=C(c1ccc(Cl)cc1)c1sccc1S2 [drawing 1247] , I see its Ki listed as 0.001

Lab note: O=C(NCc1cccc(Cl)c1)c1ccc2c(c1)N=C(c1cccc(Cl)c1)c1ccccc1S2 [drawing 1264] gave Ki of 0.00158

The compound identified as O=C(NCc1ccncc1)c1ccc2c(c1)N=C(c1ccc(Cl)cc1)c1ccccc1S2 [drawing 1294] registered its Ki at 0.02

Entry under test: O=C(NN1CCCCC1)c1ccc2c(c1)N=C(c1ccc(Cl)cn1)c1ccccc1S2 [drawing 1373] . Its Ki was 0.0316

Reported Ki for O=C(NC1CCCCC1)c1ccc2c(c1)N=C(c1cccc(Cl)c1)c1ccccc1S2 [drawing 1194] was 0.00126
